Values were extracted from the Human Domainome abundance scans (Beltran et al. 2025).

List of abundance fitness values.
B1: Gamma-crystallin C, residues 4 to 79; numbered along this chain, P07315 (parent)
chain: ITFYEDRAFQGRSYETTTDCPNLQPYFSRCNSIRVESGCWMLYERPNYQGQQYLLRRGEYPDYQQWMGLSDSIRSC

# Variants of: B1
# measurement notes: abundance fitness (aPCA) (normalised: wild type 0, dead -1); higher = more abundant; growth selection in yeast, the domain comes from the species named
# conditions: Homo sapiens

sequence variant: T18Q
abundance fitness: -0.333

sequence variant: W66L
abundance fitness: -0.082

sequence variant: C76W
abundance fitness: -0.545

sequence variant: L54W
abundance fitness: -0.073

sequence variant: Y43C
abundance fitness: 0.111

sequence variant: Y4H
abundance fitness: -0.364

sequence variant: Y53M
abundance fitness: -0.005

sequence variant: D6V
abundance fitness: -0.164

sequence variant: S70N
abundance fitness: -0.021

sequence variant: C39W
abundance fitness: 0.031

sequence variant: L54M
abundance fitness: -0.044

sequence variant: Q49M
abundance fitness: -0.115

sequence variant: Y14M
abundance fitness: 0.423

sequence variant: L54D
abundance fitness: -0.149

sequence variant: Q24F
abundance fitness: -0.14

sequence variant: C30F
abundance fitness: -0.176

sequence variant: F27R
abundance fitness: -0.269

sequence variant: R34C
abundance fitness: -0.107

sequence variant: S72V
abundance fitness: -0.012

sequence variant: T17R
abundance fitness: 0.034

sequence variant: M67W
abundance fitness: 0.044

sequence variant: S13K
abundance fitness: 0.148

sequence variant: G58M
abundance fitness: -0.223

sequence variant: R74N
abundance fitness: 0.107

sequence variant: R57K
abundance fitness: 0.049

sequence variant: M67A
abundance fitness: -0.03

sequence variant: R7G
abundance fitness: -0.02

sequence variant: S28L
abundance fitness: -0.082

sequence variant: L23I
abundance fitness: -0.059

sequence variant: W66N
abundance fitness: 0.091

sequence variant: P21A
abundance fitness: -0.028

sequence variant: P61M
abundance fitness: 0.002

sequence variant: S70C
abundance fitness: 0.101

sequence variant: S70K
abundance fitness: -0.114
